- ASSAY: Human coffee intervention study: plasma concentrations after roasted coffee brew by UPLC-MS/MS
- Format: in vivo
- RUN_CONDITIONS: human, plasma, oral, 200 mL, 10 h after coffee, comparatively high individual values; read-out: plasma concentration in samples from two individuals

MOLECULE: CC1C(=O)C23CCC4C(C(=O)O)CC(OC5OC(C(=O)O)C(O)C(O)C5O)CC4(C)C2CCC1C3 (stereo not shown)
concentration at 10 h / nM: 111

* * *

- ASSAY: Human coffee intervention study: plasma concentrations after roasted coffee brew by UPLC-MS/MS
- Format: in vivo
- RUN_CONDITIONS: human, plasma, oral, 200 mL, participant eogo, 1 h after coffee; b = below LLOQ; read-out: plasma concentration, individual
Known concentration at 1 h of a selection of molecules

MOLECULE: C=C1C2CCC3C4(C)CC(O)CC(C(=O)OC5OC(C(=O)O)C(O)C(O)C5O)C4CCC3(C2)C1O [M1, atractyligenin-19-O-β-D-glucuronide]
concentration at 1 h (nM): 30
//
MOLECULE: C=C1[C@@H]2CC[C@@H]3[C@@](CCC4[C@H](C(=O)O)C[C@@H](O)C[C@]43C)(C2)[C@@H]1O (stereo partly drawn) [compound 1, atractyligenin]
concentration at 1 h (nM): 43.4
//
MOLECULE: CC1C(=O)C23CCC4C(C(=O)O)CC(OC5OC(C(=O)O)C(O)C(O)C5O)CC4(C)C2CCC1C3 (stereo not drawn) [M3]
concentration at 1 h (nM): 0.3

* * *

- ASSAY: Human coffee intervention study: plasma concentrations after roasted coffee brew by UPLC-MS/MS
- Assay type: in vivo
- RUN_CONDITIONS: human, plasma, oral, 200 mL, participant rrmk, 0 h; b = below LLOQ; read-out: plasma concentration, individual
RESULT_TYPE: concentration at 0 h (nM)

COMPOUND: CC1C(=O)C23CCC4C(C(=O)OC5OC(C(=O)O)C(O)C(O)C5O)CC(O)CC4(C)C2CCC1C3 (stereo not shown)
REPORTED: 0.1

* * *

- ASSAY: Human coffee intervention study: plasma concentrations after roasted coffee brew by UPLC-MS/MS
- Assay type: in vivo
- RUN_CONDITIONS: human, plasma, oral, 200 mL, participant eogo, 0 h; b = below LLOQ; read-out: plasma concentration, individual

COMPOUND: CC1C(=O)C23CCC4C(C(=O)O)CC(OC5OC(C(=O)O)C(O)C(O)C5O)CC4(C)C2CCC1C3 (stereo not shown) [M3]
concentration at 0 h (nM): 0.4

* * *

- ASSAY: Human coffee intervention study: plasma concentrations after roasted coffee brew by UPLC-MS/MS
- Type: in vivo
- RUN_CONDITIONS: human, plasma, oral, 200 mL, participant mgjj, 10 h after coffee; read-out: plasma concentration, individual

MOLECULE: CC1C(=O)C23CCC4C(C(=O)O)CC(OC5OC(C(=O)O)C(O)C(O)C5O)CC4(C)C2CCC1C3 (stereo not shown)
concentration at 10 h / nM: 24.3
//
MOLECULE: C=C1[C@@H]2CC[C@@H]3[C@@](CCC4[C@H](C(=O)O)C[C@@H](O)C[C@]43C)(C2)[C@@H]1O (stereo partly shown)
concentration at 10 h / nM: 16.5
//
MOLECULE: C=C1C2CCC3C4(C)CC(O)CC(C(=O)OC5OC(C(=O)O)C(O)C(O)C5O)C4CCC3(C2)C1O [M1, atractyligenin-19-O-β-D-glucuronide]
concentration at 10 h / nM: 17.5
//
MOLECULE: CC1C(=O)C23CCC4C(C(=O)OC5OC(C(=O)O)C(O)C(O)C5O)CC(O)CC4(C)C2CCC1C3 (stereo not shown)
concentration at 10 h / nM: 0.8
